# System: HCC-2998 (Colon cancer)
# ASSAY EXPLANATION: NCI-60 screen (SRB, 48 h)
# TEST SETTINGS: Homo sapiens, HCC 2998, read-out: LC50
Checkbox rule: CC50 lower than 6 µM = Yes; CC50 not lower than 6 µM = No.

C=C(C)C1CCC2(CO)CCC3(C)C(CCC4C5(C)CCCNC(C)(C)C5CCC43C)C12 (stereo not shown)    Yes

Below 6 µM on CC50? Entry `CC1(C)CC[C@]2(CO)CC[C@]3(C)C(=CC[C@@H]4[C@@]5(C)CCCNC(C)(C)[C@@H]5CC[C@]43C)[C@@H]2C1`
No

Below 6 µM on CC50? Entry `C=C(C)[C@@H]1CC[C@]2(C)[C@H](C=CC3=C4C[C@@](C)(CO)CC[C@]4(C)CC[C@]32C)[C@@]1(C)CCCN`
Yes

Below 6 µM on CC50? Entry `C[C@H]1[C@H](C)CC[C@]2(CO)CC[C@]3(C)C(=CC[C@@H]4[C@@]5(C)CCCNC(C)(C)[C@@H]5CC[C@]43C)[C@H]12`
No

Below 6 µM on CC50? Entry `CC1(C)CC[C@]23CC[C@]4(C)[C@H](CC[C@@H]5[C@@]6(C)CCCNC(C)(C)[C@@H]6CC[C@]54C)[C@H]2[C@H]1OC3`
Yes

Below 6 µM on CC50? Entry `C=C(C)[C@@H]1CC[C@]2(C)[C@H](CC=C3[C@@H]4[C@@H](C)[C@H](C)CC[C@]4(CO)CC[C@]32C)[C@@]1(C)CCCN`
Yes

Below 6 µM on CC50? Entry `CC1(C)NCCC[C@]2(C)[C@H]3C=CC4=C5C[C@@](C)(CO)CC[C@]5(C)CC[C@@]4(C)[C@]3(C)CC[C@@H]12`
No

Reference source: paper PMC7914897
